Data origin: patent US20250027068

target: pooled human IgG (human IgG1, 2, 3 and 4)
Assay readout: Enzyme Activity Endpoint Assay: scIgG (ng/µL)
Write the value in ng/µL as a bare number.

Entry under test: PRT-384 (protein) MVTSVWTKGVTPPTNFTYGEDVLHAPYVANQGWYDITKTFNGKDDLLCGAATAGNMLHWWFDQNKEQIENYLKKHPEKQKINFNGEQMFDVKEAIDTKDSQLDSKLFEYFKEKAFPNLSTKHLGVFPDHVIDMFINGYRLSLTNHGPTPVKRGSKDPRGGIFDAVFTRGDQSKLLTNRHDFKEKTLKEISDLIKQELTEGKALGISHTYANVRINHVINLWGADFDAEGNLEAIYVTDSDSNASIGMKKYFVGVNSNGKVAISAKEIEEDNIGAQVLGLFTLSTGQDIWNQTN . Its Enzyme Activity Endpoint Assay: scIgG was 0

Record summary for PRT-487 (protein) MVTSVWTKGVTPPTDFIKGEDVFHAPYKAGQGWYDITKTFNGKDNLLCGAATAGNMLHWWFDQNKDQIERYLKEHPEKQKIIFNNQELFDLKAAIDTKDSQTDSKLFEYFKEKAFPYLSTKHLGVFPDHVLDMFINGYRLSLTNHGPTPVKEGSKDKRGGIFDAVFTRGVQSKLLTSRHDLKNKTLKEISDLIKQELTEGKALGLSHTYANVRINHVINLWGADFDSEGNLKAIYVTDSDTNASIGMKKYFVGVNSAGKVAISAKEIKEDNIGAQVLGLFTLSTGQDIWNQTNLEHHHHHH : reported Enzyme Activity Endpoint Assay: scIgG = 0
